# maps each entry to its half-life
Conditions: rat; liver microsomes; pH 7.4; 15.0 min; 1.0 µM

{"molecule": "Cc1ccc(C)c(CN2C(=O)c3ccccc3S(=O)c3ccc(C(=O)N4CCN(c5ccccc5F)CC4)cc32)c1 (stereo not given)", "unit-of-measurement": "min", "qualifying-sign": "=", "half-life": 2.32}
{"molecule": "COC(=O)CNC(=O)c1nc(-c2ccccc2OC)c2ccccn12", "unit-of-measurement": "min", "qualifying-sign": "=", "half-life": 5.38}
{"molecule": "Cc1ccc(S(=O)(=O)Nc2cnccc2C(=O)Nc2nc3ccccc3s2)cc1", "unit-of-measurement": "min", "qualifying-sign": "=", "half-life": 4.1}
{"molecule": "N#Cc1nc(-c2cccc3ccccc23)oc1NC1CNC1", "unit-of-measurement": "min", "qualifying-sign": ">", "half-life": 30}
{"molecule": "Cc1ccc(S(=O)(=O)Nc2cc(F)c(F)cc2C(=O)Nc2nc(-c3ccccc3)cs2)cc1", "unit-of-measurement": "min", "qualifying-sign": "=", "half-life": 4.6}

###

Conditions: rat; liver microsomes; pH 7.4; 15.0 min; 1.0 µM
Let's look at some molecules and their measured half-life.
metric-name: half-life (min)

{"molecule": "COc1ccccc1NC(=O)C1=C(C)Nc2c(C(=O)Nc3cccc(C)c3)cnn2C1c1ccccc1Cl (stereo not drawn)", "qualifying-sign": "=", "experimental-value": 2.98}
{"molecule": "CC(C)c1nc(CN(C)C(=O)N[C@H](C(=O)N[C@@H](Cc2ccccc2)C[C@H](O)[C@H](Cc2ccccc2)NC(=O)OCc2cncs2)C(C)C)cs1", "qualifying-sign": "=", "experimental-value": 22.1}
{"molecule": "CC[C@H]1NC(=O)[C@@H](NC(=O)c2ncccc2O)[C@@H](C)OC(=O)[C@H](c2ccccc2)NC(=O)[C@@H]2CC(=O)CCN2C(=O)[C@H](Cc2ccccc2)N(C)C(=O)[C@@H]2CCCN2C1=O", "qualifying-sign": ">", "experimental-value": 30}
{"molecule": "Cc1cc(C)nc(NC(=S)N2CCN(Cc3cccc(C(F)(F)F)c3)CC2)c1", "qualifying-sign": ">", "experimental-value": 30}
{"molecule": "NC(=O)C1CCN(c2nc(-c3ccccc3Br)cs2)CC1", "qualifying-sign": "=", "experimental-value": 2.86}
{"molecule": "O=S(=O)(Nc1nccs1)c1ccc(NCc2ccccc2)cc1", "qualifying-sign": "=", "experimental-value": 10}
{"molecule": "Cn1c(=O)c2c(-c3ccc(Br)cc3)n(CCc3ccccc3)cc2n(C)c1=O", "qualifying-sign": "=", "experimental-value": 1.23}
{"molecule": "N#Cc1ccccc1-c1csc(N2CCC(C(N)=O)CC2)n1", "qualifying-sign": "=", "experimental-value": 3.76}

###

Conditions: rat; liver microsomes; pH 7.4; 15.0 min; 1.0 µM
metric-name: half-life (min)

{"compound": "Oc1ccc(CN2CC(CNc3ccccc3)C3(C2)CN(c2ccccc2)C3)cc1 (stereo not given)", "metric-name": "half-life", "qualifying-sign": "=", "experimental-value": 3.01}
{"compound": "CCOc1ccc(CCNC(=O)c2ccnn2Cc2cccc(C)c2)cc1OCC", "metric-name": "half-life", "qualifying-sign": "=", "experimental-value": 1.5}
{"compound": "O=c1c(-c2ccc(O)cc2)coc2cc(O)cc(O)c12", "metric-name": "half-life", "qualifying-sign": ">", "experimental-value": 30}
{"compound": "COc1ccc(C2=Nc3ccc(Br)cc3C(c3ccccc3)N2CC(=O)NN)cc1 (stereo not given)", "metric-name": "half-life", "qualifying-sign": "=", "experimental-value": 8.16}
{"compound": "Cc1nc(Sc2nnnn2C)c2c(-c3ccccc3)csc2n1", "metric-name": "half-life", "qualifying-sign": "=", "experimental-value": 1.6}
{"compound": "CCOC(=O)c1[nH]c(C)c(CCC(=O)N2CCN(c3cc(Cl)ccc3C)CC2)c1C", "metric-name": "half-life", "qualifying-sign": "=", "experimental-value": 1.8}
{"compound": "O=C(Nc1nc(-c2ccccc2)cs1)c1ccncc1NS(=O)(=O)c1cccc2cccnc12", "metric-name": "half-life", "qualifying-sign": "=", "experimental-value": 7.4}
{"compound": "Cc1ccc(C(=O)[C@H]2CC[C@@H](C(=O)Nc3ccc(S(=O)(=O)Nc4nccs4)cc3)C2)cc1C", "metric-name": "half-life", "qualifying-sign": "=", "experimental-value": 2.5}
{"compound": "COc1ccc(-n2nc(C)c([C@@H]3C=C[C@@H](NCc4ccc(N(C)C)cc4)C3)c2C)cc1", "metric-name": "half-life", "qualifying-sign": "=", "experimental-value": 2.69}
{"compound": "Nc1cc(CN2C(=O)c3ccccc3C2=O)cc(Cl)c1O", "metric-name": "half-life", "qualifying-sign": "=", "experimental-value": 11.7}

###

Conditions: rat; liver microsomes; pH 7.4; 15.0 min; 1.0 µM
Think of 6 min as a floor: if half-life stands on it or above, it is Criterion met; beneath it, Criterion not met.

{"compound": "CC(C)(C)CC(C)(C)c1ccc(O)cc1", "label-value": "Criterion not met"}
{"compound": "CCN(CC)CCCC(C)Nc1cc(/C=C/c2ccccc2Cl)nc2cc(Cl)ccc12 (stereo not given)", "label-value": "Criterion met"}
{"compound": "CCOc1ccc(CNC(=O)CCCn2nc(C)c3c(C)n(-c4ccc(C)cc4)nc3c2=O)cc1", "label-value": "Criterion not met"}
{"compound": "CC(=O)Nc1ccc(CN2CCc3nc(C(C)C)nc(-c4ccc(Cl)cc4)c3CC2)cc1", "label-value": "Criterion not met"}
{"compound": "CCOc1ccc(CCNC(=O)c2cc3ccncc3n2Cc2cccc(C)c2)cc1OCC", "label-value": "Criterion met"}
{"compound": "COc1ccc(O)c2c(=O)c3c(OC)cc4c(c3oc12)C1C=COC1O4 (stereo not given)", "label-value": "Criterion not met"}
{"compound": "CCOC(=O)CCNc1cc(N2CCc3ccccc3CC2)nc(-c2ccccn2)n1", "label-value": "Criterion not met"}
{"compound": "CCOc1ccc(OCC)c(NC(=O)C(NS(=O)(=O)c2ccc(Br)s2)c2ccccc2)c1 (stereo not given)", "label-value": "Criterion not met"}
{"compound": "Cc1ccc(CN2C(=O)C(O)(CC(=O)c3ccc(C)cc3)c3ccccc32)cc1 (stereo not given)", "label-value": "Criterion not met"}
{"compound": "Cc1ccc(S(=O)(=O)Nc2cnccc2C(=O)Nc2nc(-c3ccccc3)cs2)cc1", "label-value": "Criterion met"}

###

Conditions: rat; liver microsomes; pH 7.4; 15.0 min; 1.0 µM
Measured log10(half-life) values are reported for all entries that follow.
metric-name: log10(half-life) (log10 of the value in min)

{"molecule": "O=C(N[C@@H](Cc1ccccc1)C(=O)CCl)OCc1ccccc1", "experimental-value": 1.15}
{"molecule": "CC1=C(C(=O)Nc2nnc(-c3ccccc3)s2)C(c2nn(C)cc2Cl)N=C(Nc2nc3ccccc3o2)N1 (stereo not given)", "experimental-value": 1.04}
{"molecule": "COc1ccc(CN2CCNc3cc(Nc4ccccc4)ncc3C2)cc1", "experimental-value": 0.50}
{"molecule": "O=C(C=Cc1cccnc1)NCCCCC1CCN(C(=O)c2ccccc2)CC1", "experimental-value": 1.09}
{"molecule": "O=C(Nc1cccc(Cc2ccccc2)c1)c1ccc(-c2cccc([N+](=O)[O-])c2)o1", "experimental-value": 0.40}
{"molecule": "CC(C)c1ccc(S(=O)(=O)c2cnc(SCC(=O)Nc3ccc4c(c3)OCCO4)[nH]c2=O)cc1", "experimental-value": 0.58}
{"molecule": "O=C1CCCC2=C1C(c1[nH]ncc1Cl)N=C(Nc1nc3cccc(Cl)c3o1)N2 (stereo not given)", "experimental-value": 0.65}
{"molecule": "CNc1ccc(Br)cc(C(=O)/C=C/c2ccc(OC)cc2OC)c1=O", "experimental-value": 0.71}
{"molecule": "COc1cccc(CNC(=O)c2ccc(N3CCCC3)c(NC(=O)Nc3ccccc3F)c2)c1", "experimental-value": 0.23}
{"molecule": "Cc1ccnc(NC(=S)N2CCC(Nc3cccc(C(F)(F)F)c3)CC2)c1", "experimental-value": 1.30}
{"molecule": "Cc1ccc(S(=O)(=O)Nc2cnccc2C(=O)Nc2nc(-c3ccncc3)cs2)cc1", "experimental-value": 1.23}
{"molecule": "CCOC(=O)c1[nH]c(C)c(CCC(=O)N2CCN(c3cccc(C)c3C)CC2)c1C", "experimental-value": 0.36}
{"molecule": "CN(C(=O)CSc1nc2c(c(=O)[nH]1)CCCC2)c1ccccc1", "experimental-value": 1.11}
{"molecule": "CCCCN(C)C(=O)c1c(C)sc2ccn(CCC)c(=O)c12", "experimental-value": 1.12}
{"molecule": "Cc1ccc(S(=O)(=O)Nc2cnccc2C(=O)Nc2nc(-c3cccnc3)cs2)cc1", "experimental-value": 0.89}
{"molecule": "O=S(=O)(Nc1cccc2ccncc12)c1ccc(NCc2cccc(Cl)c2O)cc1", "experimental-value": 1.00}
{"molecule": "CCC(CC)c1cc([C@H]2CN3CC[C@H]2C[C@@H]3CNC(=O)COc2ccccc2)nc(-c2ccncc2)n1", "experimental-value": 0.38}

Data origin: PubChem BioAssay AID1508591
